Could you please report measured Mono for the items listed next?
Organism: Rattus norvegicus
measurement description: Open TG-GATES - Regimen: Single
Assay type: toxicity, organism-based, Sprague-Dawley
Parameters: regimen Single, gender Male, age 6 weeks
condition parameters: in vivo, po, 0 mg/kg, 24 h, tissue Blood, route gavage, dose level Control
The answer should read as a number with its unit following.

// below: answered compounds
>  <compound>
OCCOCCN1CCN(C(c2ccccc2)c2ccc(Cl)cc2)CC1 (stereo unspecified) [HYDROXYZINE]

>  <measure name>
Mono

>  <endpoint value>
2.6%

$$$$
>  <compound>
CN(C)CCC=C1c2ccccc2COc2ccccc21 [DOXEPIN]

>  <measure name>
Mono

>  <endpoint value>
3%

$$$$
>  <compound>
O=NN(CCCl)C(=O)NC1CCCCC1

>  <measure name>
Mono

>  <endpoint value>
6.4%

$$$$

// for each compound below, give its Mono
1. CCc1oc2ccccc2c1C(=O)c1cc(Br)c(O)c(Br)c1
2. CC1=C(CC(=O)O)c2cc(F)ccc2/C1=C\c1ccc([S+](C)[O-])cc1 (stereo unspecified)

6.4%
2.8%

// for each compound below, give its Mono
1. CN(C)C(=N)N=C(N)N
2. ClC(Cl)(Cl)Cl [CARBON TETRACHLORIDE]

["3.8%", "2.4%"]

// for each compound below, give its Mono
1. CC[C@H]1[C@@H]2C[C@H]3[C@@H]4N(C)c5ccccc5[C@]45C[C@@H]([C@@H]2[C@H]5O)N3[C@@H]1O
2. CC(C)N(CCC(C(N)=O)(c1ccccc1)c1ccccn1)C(C)C (stereo unspecified) [DISOPYRAMIDE]
3. O=NN1CCOCC1
4. CCC1(c2ccccc2)C(=O)NC(=O)NC1=O

1: 8.4%; 2: 2.4%; 3: 2.2%; 4: 2.4%

* * *

Species on record: Rattus norvegicus
measurement description: Open TG-GATES - Regimen: Daily Repeat
Assay type: toxicity, organism-based, Sprague-Dawley
Design: regimen Daily Repeat, gender Male, age 6 weeks
condition parameters: in vivo, po, 0 mg/kg, […], tissue Plasma, route gavage, dose level Control, time 28 day
Flag rule - LDH less than 90 IU/L flags fulfilled; the remaining entries get not fulfilled.

Check out these entries, answers already filled in.
>  <compound>
O=NN(CCCl)C(=O)NC1CCCCC1

>  <group label>
fulfilled

$$$$
>  <compound>
CN(C)CCC=C1c2ccccc2COc2ccccc21 [DOXEPIN]

>  <group label>
fulfilled

$$$$

Strictly below 90 IU/L in LDH? CC[C@H]1[C@@H]2C[C@H]3[C@@H]4N(C)c5ccccc5[C@]45C[C@@H]([C@@H]2[C@H]5O)N3[C@@H]1O fulfilled

Could you do the same for CN(C)C(=N)N=C(N)N , please? fulfilled

Could you do the same for CCCCc1oc2ccccc2c1C(=O)c1cc(I)c(OCCN(CC)CC)c(I)c1 , please? not fulfilled

Could you do the same for OCCOCCN1CCN(C(c2ccccc2)c2ccc(Cl)cc2)CC1 (stereo unspecified) [HYDROXYZINE] , please? not fulfilled

Could you do the same for CC(C)N(CCC(C(N)=O)(c1ccccc1)c1ccccn1)C(C)C (stereo unspecified) [DISOPYRAMIDE] , please? not fulfilled

* * *

Organism: Rattus norvegicus
measurement description: Open TG-GATES - Regimen: Single
Format: toxicity, organism-based, Sprague-Dawley
Design: regimen Single, gender Male, age 6 weeks
condition parameters: in vivo, po, 0 mg/kg, 24 h, tissue Plasma, route gavage, dose level Control
measure name: ALT (IU/L)
One number for each entry, in IU/L.

>  <molecule>
CN(C)C(=N)N=C(N)N [METFORMIN]

>  <uom>
IU/L

>  <ALT>
49.8

$$$$
>  <molecule>
CCC1(c2ccccc2)C(=O)NC(=O)NC1=O [PHENOBARBITAL]

>  <uom>
IU/L

>  <ALT>
35.8

$$$$
>  <molecule>
CC(C)N(CCC(C(N)=O)(c1ccccc1)c1ccccn1)C(C)C (stereo not given) [DISOPYRAMIDE]

>  <uom>
IU/L

>  <ALT>
53.6

$$$$
>  <molecule>
O=NN1CCOCC1 [N-NITROSOMORPHOLINE]

>  <uom>
IU/L

>  <ALT>
38.6

$$$$

For OCCOCCN1CCN(C(c2ccccc2)c2ccc(Cl)cc2)CC1 (stereo not given) [HYDROXYZINE] , what is its reported ALT? 43.4

// data source = ChEMBL document CHEMBL3885861
